targetDesc: Prostaglandin synthetase (Bos taurus)
Construct: Prostaglandin synthetase purified beef seminal vesicle; from tissue
Sequence (O62664 25-600): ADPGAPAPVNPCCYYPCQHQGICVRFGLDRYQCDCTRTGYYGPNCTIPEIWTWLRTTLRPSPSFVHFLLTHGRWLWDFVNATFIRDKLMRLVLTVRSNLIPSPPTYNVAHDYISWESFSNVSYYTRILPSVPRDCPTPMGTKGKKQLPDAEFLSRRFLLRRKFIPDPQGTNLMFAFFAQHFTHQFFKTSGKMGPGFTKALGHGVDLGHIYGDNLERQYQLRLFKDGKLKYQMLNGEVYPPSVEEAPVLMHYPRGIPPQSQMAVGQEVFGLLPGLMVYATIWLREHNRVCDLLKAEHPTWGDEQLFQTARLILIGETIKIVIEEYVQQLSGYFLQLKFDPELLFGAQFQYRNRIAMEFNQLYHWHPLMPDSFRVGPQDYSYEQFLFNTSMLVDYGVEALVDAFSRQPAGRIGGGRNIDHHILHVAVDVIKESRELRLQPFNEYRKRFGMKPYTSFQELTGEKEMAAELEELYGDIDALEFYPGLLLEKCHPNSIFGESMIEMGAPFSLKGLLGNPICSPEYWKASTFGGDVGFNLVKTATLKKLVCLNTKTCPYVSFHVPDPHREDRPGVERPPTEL
assayInfo: Prostaglandin synthetase (cyclooxygenase), purified beef seminal vesicle
Type: biochemical
details: Table IX; commercial enzyme preparation; read-out: Beef Prostaglandin Cyclooxygenase IC50
pIC50: −log10 of the molar value. Counter-ions that a name gives are not always drawn.
Recorded pIC50 for the following compounds

| compound | pIC50 |
| --- | --- |
| C[NH+](C)[BH2-]C(=O)O [Compound 23, Dimethylamine-carboxyborane, sodium salt] | 5.49 |
| C[N+](C)(C)[BH2-]C(=O)NO [Compound 14] | 5.89 |
| CCCCCCCCCCCCCCCC[N+](C)(C)[BH2-]C(=O)O [Compound 7, N,N-Dimethylhexadecylamine-carboxyborane] | 5.54 |
| [BH3-][NH+]1CCOCC1 [Compound 1, Morpholine-borane] | 5.63 |
| O=C(O)[BH2-][n+]1ccccc1 [Compound 15, Pyridine-carboxyborane] | 5.12 |
| CCCCCCCCCCCCCCCCCC[N+](C)(C)[BH2-]C(=O)O [Compound 6, N,N-Dimethyloctadecylamine-carboxyborane] | 5.72 |

* * *

Recorded pIC50 for the following compounds
targetDesc: Porcine Pancreatic Elastase (Sus scrofa)
Sequence (P00772 27-266): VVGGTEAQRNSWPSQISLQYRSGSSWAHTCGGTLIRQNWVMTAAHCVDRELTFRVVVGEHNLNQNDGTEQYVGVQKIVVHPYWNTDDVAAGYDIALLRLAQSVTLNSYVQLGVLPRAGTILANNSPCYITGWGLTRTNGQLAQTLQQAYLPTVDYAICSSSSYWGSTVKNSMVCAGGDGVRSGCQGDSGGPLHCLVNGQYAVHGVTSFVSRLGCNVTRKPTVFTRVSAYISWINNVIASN
pIC50: −log10 of the molar value. Counter-ions that a name gives are not always drawn.

| compound | targetDesc | pIC50 |
| --- | --- | --- |
| [BH3-][NH+]1CCOCC1 | Porcine Pancreatic Elastase (Sus scrofa) | 4.83 |
| C[NH+](C)[BH2-]C(=O)O [Compound 23, Dimethylamine-carboxyborane, sodium salt] | Porcine Pancreatic Elastase (Sus scrofa) | 4.43 |
| CCCCCCCCCCCCCCCC[N+](C)(C)[BH2-]C(=O)O | Porcine Pancreatic Elastase (Sus scrofa) | 4.30 |

* * *

targetDesc: Elastase
assayInfo: Mouse macrophage elastase activity
Format: cell-based
details: Table XVIII; mouse macrophage, 60 min incubation; read-out: Elastase IC50
pIC50: −log10 of the molar value.

| smilesData | pIC50 |
| --- | --- |
| C[N+](C)(C)[BH2-]C(=O)[O-].C[N+](C)(C)[BH2-]C(=O)[O-].C[N+](C)(C)[BH2-]C(=O)[O-].C[N+](C)(C)[BH2-]C(=O)[O-].C[N+](C)(C)[BH2-]C(=O)[O-].C[N+](C)(C)[BH2-]C(=O)[O-].O.O.O.[Cl-].[Fe+3].[Fe+3].[Fe+3].[O-2] | 5.39 |
| BC(=O)O | 5.51 |
| C[N+](C)(C)[BH2-]C(=O)[O-].C[N+](C)(C)[BH2-]C(=O)[O-].NCCN.NCCN.[Cl-].[Co+3] | 5.01 |
| CC#N.CO.CO.CO.C[N+](C)(C)[BH2-]C(=O)[O-].C[N+](C)(C)[BH2-]C(=O)[O-].C[N+](C)(C)[BH2-]C(=O)[O-].C[N+](C)(C)[BH2-]C(=O)[O-].C[N+](C)(C)[BH2-]C(=O)[O-].C[N+](C)(C)[BH2-]C(=O)[O-].O=[N+]([O-])[O-].[Fe+3].[Fe+3].[Fe+3].[O-2] | 5.41 |
| CC#N.CO.C[N+](C)(C)[BH2-]C(=O)[O-].C[N+](C)(C)[BH2-]C(=O)[O-].C[N+](C)(C)[BH2-]C(=O)[O-].C[N+](C)(C)[BH2-]C(=O)[O-].C[N+](C)(C)[BH2-]C(=O)[O-].C[N+](C)(C)[BH2-]C(=O)[O-].O.O=[N+]([O-])[O-].[Cr+3].[Cr+3].[Cr+3].[O-2] | 5.29 |

* * *

targetDesc: Cathepsin D (Mus musculus, UniProt P18242)
Construct: azocasein assay pH 5.0
Sequence (P18242 65-410): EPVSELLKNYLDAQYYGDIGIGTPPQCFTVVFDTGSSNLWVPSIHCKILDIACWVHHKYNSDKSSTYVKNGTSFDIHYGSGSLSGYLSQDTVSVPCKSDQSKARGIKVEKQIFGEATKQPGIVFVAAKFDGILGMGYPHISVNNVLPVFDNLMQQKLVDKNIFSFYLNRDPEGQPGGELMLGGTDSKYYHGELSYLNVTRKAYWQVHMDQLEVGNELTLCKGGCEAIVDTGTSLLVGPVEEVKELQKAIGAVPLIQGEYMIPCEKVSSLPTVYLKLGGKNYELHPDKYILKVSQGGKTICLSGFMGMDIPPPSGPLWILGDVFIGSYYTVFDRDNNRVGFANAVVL
assayInfo: Mouse hepatic lysosomal cathepsin D activity
Type: biochemical
details: Table XIX; read-out: Mouse Hepatic Cathepsin D IC50
readoutType: IC50 (µM)

| smilesData | scaleUnit | quantitativeResult |
| --- | --- | --- |
| N#C[BH2-][n+]1c(N)ccn([C@H]2C[C@H](O)[C@@H](CO)O2)c1=O | µM | 26 |

* * *

assayInfo: in vivo
details: mouse, Table 1, N=6

| molecule | scaleUnit | LD50 at 336 h |
| --- | --- | --- |
| C[N+](C)(C)[BH2-]C#N | mg/kg | 70 |
| C[N+](C)(C)[BH2-]C(=O)O | mg/kg | 1800 |
| CCOC(=O)[BH2-][N+](C)(C)C | mg/kg | 140 |
| COc1ccc2c(c1)c(CC(=O)O)c(C)n2C(=O)c1ccc(Cl)cc1 [Indomethacin, reference compound] | mg/kg | 28 |
| [BH3-][NH+]1CCOCC1 | mg/kg | 475 |

* * *

Recorded IC50 for the following compounds
targetDesc: 5'-Lipoxygenase (Homo sapiens, UniProt P09917)
Construct: human leukocyte tissue culture cells; endogenous in cells; host or cells: Human peripheral leukocytes, RPMI-1788
Sequence (P09917 whole entry): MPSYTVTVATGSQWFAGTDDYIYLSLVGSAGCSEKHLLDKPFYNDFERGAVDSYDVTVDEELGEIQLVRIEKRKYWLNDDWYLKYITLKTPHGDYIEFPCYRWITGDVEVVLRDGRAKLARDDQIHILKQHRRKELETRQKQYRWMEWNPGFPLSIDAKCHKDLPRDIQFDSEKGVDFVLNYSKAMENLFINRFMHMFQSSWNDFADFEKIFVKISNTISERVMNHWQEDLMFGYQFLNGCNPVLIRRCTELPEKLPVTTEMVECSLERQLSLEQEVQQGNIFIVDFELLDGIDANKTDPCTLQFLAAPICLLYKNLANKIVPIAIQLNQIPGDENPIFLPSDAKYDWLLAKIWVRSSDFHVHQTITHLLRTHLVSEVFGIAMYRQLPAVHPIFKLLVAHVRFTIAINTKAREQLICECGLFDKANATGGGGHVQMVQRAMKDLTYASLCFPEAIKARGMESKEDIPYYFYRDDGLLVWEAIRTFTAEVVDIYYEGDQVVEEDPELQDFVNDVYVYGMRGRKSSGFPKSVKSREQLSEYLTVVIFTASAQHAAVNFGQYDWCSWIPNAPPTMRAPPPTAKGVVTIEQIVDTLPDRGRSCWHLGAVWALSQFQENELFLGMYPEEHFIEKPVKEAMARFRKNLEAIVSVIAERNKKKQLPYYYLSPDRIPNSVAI
assayInfo: Human leukocyte 5'-lipoxygenase
Type: cell-based
readoutType: IC50 (µM)

| smilesData | readoutType | scaleUnit | quantitativeResult |
| --- | --- | --- | --- |
| CC(C)[Si](OC[C@H]1O[C@@H](n2cnc3c(N)ncnc32)C[C@@H]1O[Si](C(C)C)(C(C)C)C(C)C)(C(C)C)C(C)C | IC50 | µM | 10.1 |
| CC(C)[Si](OC[C@H]1O[C@@H](n2cnc3c(=O)[nH]cnc32)C[C@@H]1O[Si](C(C)C)(C(C)C)C(C)C)(C(C)C)C(C)C | IC50 | µM | 8.85 |
| CC(C)[Si](OC[C@H]1O[C@@H](n2ccc(N)nc2=O)C[C@@H]1O[Si](C(C)C)(C(C)C)C(C)C)(C(C)C)C(C)C | IC50 | µM | 7.72 |
| CC(C)[Si](OC[C@@H]1CC[C@H](n2ccc(N)[n+]([BH2-]C#N)c2=O)O1)(C(C)C)C(C)C | IC50 | µM | 6.64 |
| CC(C)[Si](OC[C@H]1O[C@@H](n2ccc(N)[n+]([BH2-]C#N)c2=O)C[C@@H]1O[Si](C(C)C)(C(C)C)C(C)C)(C(C)C)C(C)C | IC50 | µM | 3.88 |

* * *

Tested on: Calcium
assayInfo: Serum and urine calcium levels in vivo
details: Cf1 male mice, 8 mg/kg/day I.P. 14 days, N=6
readoutType: Calcium urine (% Control)

| smilesData | readoutType | scaleUnit | quantitativeResult |
| --- | --- | --- | --- |
| COC(=O)[BH2-][NH+](C)C | Calcium urine | % Control | 80.7 |
| C[N+](C)(C)[BH2-]C#N | Calcium urine | % Control | 50.8 |
| O=C(O)[BH2-][P+](c1ccccc1)(c1ccccc1)c1ccccc1 | Calcium urine | % Control | 83.5 |
| CCCCCCCCCCCCCCCC[N+](C)(C)[BH2-]C(=O)O | Calcium urine | % Control | 80.7 |

* * *

targetDesc: Aryl sulphatase
assayInfo: Mouse hepatic lysosomal aryl sulphatase activity
Assay type: biochemical
details: Table V, 60 min incubation

| smilesData | targetDesc | IC50 (µM) |
| --- | --- | --- |
| C[N+](C)(C)[BH2-]C(=O)NO | Aryl sulphatase | 5.85 |

* * *

targetDesc: Commercial Collagenase
assayInfo: Commercial collagenase (type not stated)
Assay type: biochemical
details: Table XVI; 60 min incubation
Quick rule for you: IC50 under 500 µM gets y, anything else gets n.

| compound | answerLabel |
| --- | --- |
| C[N+](C)(C)[BH2-]C(=O)[O-].C[N+](C)(C)[BH2-]C(=O)[O-].NCCN.NCCN.[Cl-].[Co+3] [Compound 27] | n |
| CC#N.CO.C[N+](C)(C)[BH2-]C(=O)[O-].C[N+](C)(C)[BH2-]C(=O)[O-].C[N+](C)(C)[BH2-]C(=O)[O-].C[N+](C)(C)[BH2-]C(=O)[O-].C[N+](C)(C)[BH2-]C(=O)[O-].C[N+](C)(C)[BH2-]C(=O)[O-].O.O=[N+]([O-])[O-].[Cr+3].[Cr+3].[Cr+3].[O-2] [Compound 26] | n |
| C[N+](C)(C)[BH2-]C(=O)[O-].C[N+](C)(C)[BH2-]C(=O)[O-].C[N+](C)(C)[BH2-]C(=O)[O-].C[N+](C)(C)[BH2-]C(=O)[O-].C[N+](C)(C)[BH2-]C(=O)[O-].C[N+](C)(C)[BH2-]C(=O)[O-].O.O.O.[Cl-].[Fe+3].[Fe+3].[Fe+3].[O-2] [Compound 25] | y |
| CC#N.CO.CO.CO.C[N+](C)(C)[BH2-]C(=O)[O-].C[N+](C)(C)[BH2-]C(=O)[O-].C[N+](C)(C)[BH2-]C(=O)[O-].C[N+](C)(C)[BH2-]C(=O)[O-].C[N+](C)(C)[BH2-]C(=O)[O-].C[N+](C)(C)[BH2-]C(=O)[O-].O=[N+]([O-])[O-].[Fe+3].[Fe+3].[Fe+3].[O-2] [Compound 24] | y |

Value source: patent US5312816A
